Kindly supply the reported inhibition at 10 µM values for the records listed here.
# Tested on: MDA MB 231 cells
# assay.name: Antiproliferation assay in MDA MB 231 cells (Cell Titer Glo)
# Format: cell-based
# test.conditions: Homo sapiens, MDA-MB-231, 216 h, MDAMB231 cell line, 9 day treatment, separated enantiomers A/B (Table 3)

// below: answered compounds
CCC(=O)N1N=C(c2c(C)c3ccsc3[nH]c2=O)CC1c1ccc(C)cc1F (single isomer, unassigned) [Example 66A] ... ≥ 50%
CCC(=O)N1N=C(c2c(C)c3ccsc3[nH]c2=O)CC1c1ccc(OC)cc1 (single isomer, unassigned) [Example 20A] ... ≥ 50%
CCC(=O)N1N=C(c2c(C)c3ccsc3[nH]c2=O)CC1c1ccc(C)cc1 (single isomer, unassigned) [Example 37B] ... ≥ 50%
CCC(=O)N1N=C(c2c(C)c3ccccc3[nH]c2=O)C[C@@H]1c1ccc(C)cc1 (stereo in doubt) [Example 60A] ... ≥ 50%
CCC(=O)N1N=C(c2c(C)c3ccsc3[nH]c2=O)CC1c1ccsc1 (single isomer, unassigned) [Example 33B] ... < 50%
CCC(=O)N1N=C(c2c(C)c3ccc(N4CCN(C)CC4)cc3[nH]c2=O)CC1c1ccc(C)cc1 (single isomer, unassigned) [Example 82A] ... ≥ 50%
CCC(=O)N1N=C(c2c(C)c3ccc(Cl)cc3[nH]c2=O)CC1c1ccc(C)cc1 (single isomer, unassigned) [Example 80A] ... < 50%
CCC(=O)N1N=C(c2c(C)c3ccnc(C)c3[nH]c2=O)CC1c1ccc(C)cc1 (single isomer, unassigned) [Example 78A] ... < 50%

Query block: # input compound: CCC(=O)N1N=C(c2c(C)c3ccncc3[nH]c2=O)CC1c1ccc(C)cc1 (single isomer, unassigned) [Example 74A] ; wanted: its inhibition at 10 µM
Result block: ≥ 50%
